# Tested on: SEM cells
# PROCEDURE_SUMMARY: cell viability relative to DMSO control; higher = less cytotoxic
# CONDITIONS_USED: RPMI 5 mM glucose + 10% FBS; 48 h; 0.000781 µM
MEASUREMENT_NAME: cell viability (%)
Response body: numeric value in %, unit text excluded.

These recorded examples may help you get a feel for the data.
What the record says about `Nc1ccc([S+](=O)([O-])Nc2ccccn2)cc1` : cell viability is 100

cell viability measured on `CC1=C(/C=C/C(C)=C/C=C/C(C)=C/C(=O)Nc2ccc(O)cc2)C(C)(C)CCC1` = 85

// sample `CC1=CC2=C(O1)C(=C3OC(=O)\C=C(C)/C3=C2)C` , its cell viability was 72

The recorded cell viability for `O=C(Oc1ccc([N+](=O)[O-])cc1)N1CCN(Cc2cccc(Oc3ccccc3)c2)CC1` is 90.4

Others:
For record C[Se]CCC(N)C(=O)O (stereo not given) the listed cell viability is 65.1

###

# System: P12-Ichikawa
# PROCEDURE_SUMMARY: cell viability relative to DMSO control; higher = less cytotoxic
# CONDITIONS_USED: RPMI 5 mM glucose + 10% FBS; 48 h; 0.000781 µM
MEASUREMENT_NAME: cell viability (%)
Please reply with the bare figure in % and do not write the unit itself.

Study these solved cases before continuing.
Briefly, cell viability measured for `CC1=C(/C=C/C(C)=C/C=C/C(C)=C/C(=O)Nc2ccc(O)cc2)C(C)(C)CCC1` : 82

# cell viability of `c1ccc(-c2nn3c(c2-c2ccnc4cc(OCCN5CCOCC5)ccc24)CCC3)nc1` = 112

cell viability reported for this compound `CCCn1c(=O)c2[nH]c(-c3cnn(Cc4cccc(C(F)(F)F)c4)c3)nc2n(CC)c1=O` : 115

The compound listed as CC1(C)CC(=O)c2c(C(F)(F)F)nn(-c3ccc(C(N)=O)c(NC4CCC(OC(=O)CN)CC4)c3)c2C1 (stereo not given) shows cell viability equal to 83.8

Further cases:
// recorded cell viability for `CCCCOc1ccc(C(=O)Nc2ccc(F)cc2F)cc1` : 78.9

Summary for this compound, `CCC(=O)O[C@@]1([C@H](C)C[C@H]2[C@@H]3C[C@H](F)\C4=C\C(=O)\C=C/[C@]4(C)[C@@]3(F)[C@@H](O)C[C@]12C)C(=O)SCF` : cell viability is 120

###

# System: P12-Ichikawa
# PROCEDURE_SUMMARY: cell viability relative to DMSO control; higher = less cytotoxic
# CONDITIONS_USED: HPLM + 10% dialyzed FBS; 48 h; 0.569 µM
Reported cell viability values for a set of molecules
I only need the number, in %, no unit after it.

Known results for molecules:
Bench note, P12-Ichikawa: `COc1ccc([C@@H]2CNC(=O)C2)cc1OC1CCCC1` , cell viability reads 113

cell viability of `CO[C@@H]1[C@H](N(C)C(=O)c2ccccc2)C[C@H]2O[C@]1(C)n1c3ccccc3c3c4c(c5c6ccccc6n2c5c31)C(=O)NC4` , assay on P12-Ichikawa, is 122

Per the reported P12-Ichikawa data, C[Se]CCC(N)C(=O)O (stereo not drawn) has cell viability of 87.4

Value (cell viability, P12-Ichikawa) for record `COc1cc(/C=C/C(=O)CC(=O)/C=C/c2ccc(O)c(OC)c2)ccc1O` = 109

More entries:
Measured cell viability for this entry `COc1cc2c(NC3CCN(C(C)C)CC3)nc(C3CCCCC3)nc2cc1OCCCN1CCCC1` on P12-Ichikawa: 120

The reported P12-Ichikawa cell viability of `C[C@@]12OC(=O)[C@@]1(NC(=O)[C@@H]2CCCl)[C@@H](O)[C@H]\3CCC\C=C3` is 6.01

Bench note, P12-Ichikawa: entry COc1ccc2cc(-c3[nH]c(-c4ccc([S+](C)[O-])cc4)nc3-c3ccncc3)ccc2c1 (stereo not drawn) , its cell viability = 124

Entry `CC1=C2N=C([NH]C2=CC(=C1)N3CCOCC3)\C4=C(NC[C@@H](O)C5=CC=CC(=C5)Cl)\C=C/NC4=O` , P12-Ichikawa data, cell viability value: 112
